test system: THP-1; assay: cell viability (% survival relative to DMSO control, bortezomib = 0%); higher = less cytotoxic; settings: 1000 nM; 72 h
This section presents compounds with their documented cell viability values.
The answer is to be given in %; state only the numeric part.

compound	subject-of-test	units-symbol	cell viability
OCCN1C[C@H](O)[C@@H](O)[C@H](O)[C@H]1CO [Miglitol]	THP-1	%	95.9
O=NN(CCCl)C(=O)NCCCl [Carmustine]	THP-1	%	101
O=C(CCl)N(CCCNC(=O)C(F)(F)F)c1ccc([N+](=O)[O-])cc1 [ML175]	THP-1	%	94.2
Cc1nc(-c2ccc(OCC(C)C)c(C#N)c2)sc1C(=O)O [Febuxostat]	THP-1	%	99.6

We now examine a further compound.
response.value for O=c1[nH]c(=O)n([C@H]2C[C@H](O)[C@@H](CO)O2)cc1I [Idoxuridine] (field: cell viability) = 104

====

system: NOMO-1; test: cell viability (% survival relative to DMSO control, bortezomib = 0%); higher = less cytotoxic; settings: 1 nM; 72 h
readout-type: cell viability (%)
Answer format: numeric, % implied, no suffix.

molecule	endpoint-result
N#Cc1ccc(C2CCCc3cncn32)cc1 (centres undefined)	100
Clc1cc(Cl)c(OCC#CI)cc1Cl	109

Entry CC(=O)N1CCN(c2ccc(OC[C@@H]3CO[C@@](Cn4ccnc4)(c4ccc(Cl)cc4Cl)O3)cc2)CC1 (racemic) , cell viability reported as 102

====

system: myeloid leukemia patient primary cells Pat.15; experiment: cell viability (% survival relative to DMSO control); higher = less cytotoxic; settings: 1 nM; 72 h
Recorded cell viability, one value per entry.
# number only, unit % dropped from output

Use the examples below as a reference point.
sample-smiles	endpoint-result
O=C(Oc1cccc(F)c1OC(=O)c1cccc(O)c1)c1cccc(O)c1	96.4
O=C(/C=C/c1cccnc1)NCCCCC1CCN(C(=O)c2ccccc2)CC1	80.9
Nc1ccn([C@@H]2O[C@H](CO)[C@@H](O)C2(F)F)c(=O)n1	96.3
Clc1cc(Cl)c(OCC#CI)cc1Cl	85.7

Please look at the following compound next.
Reported cell viability of CN(C)CCNC(=O)c1cccn2c(=O)c3cc4ccccc4cc3nc12 : 91.5

====

system: MV4-11; assay: cell viability (% survival relative to DMSO control, bortezomib = 0%); higher = less cytotoxic; details: 1000 nM; 72 h
readout-type: cell viability (%)
Note: unit % is implicit; provide only the numeric part.

molecule	endpoint-result
CC(=O)N[C@@H](CS)C(=O)O [Acetylcysteine]	111
Cl.OC[C@H]1NC[C@H](O)[C@@H](O)[C@H]1O [Migalastat]	104
NS(=O)(=O)c1ccc(S(=O)(=O)Nc2cccc3c(Cl)c[nH]c23)cc1 [Indisulam]	0.62

Given the molecule O=C(/C=C/c1cccnc1)NCCCCC1CCN(C(=O)c2ccccc2)CC1 [Daporinad] and test system MV4-11, the measured cell viability is -0.345

Tested on MV4-11: CN1CC(=O)N2[C@H](c3ccc4c(c3)OCO4)c3[nH]c4ccccc4c3C[C@@H]2C1=O [Tadalafil] . Observed cell viability: 102

====

test system: HL-60; test: cell viability (% survival relative to DMSO control); higher = less cytotoxic; conditions: 0.001 µM; 72 h; co-treatment: DMSO vehicle
readout-type: cell viability (%)
Lab book: enter the figure in %, no units written.

compound	readout-type	endpoint-result
O=NN(CCCl)C(=O)NCCCl	cell viability	96.8

Quick note, cell viability for CCCCCCCCCCCCCCOc1ccc(C(=O)O)o1 landed at 98.8

The value of cell viability measured for the compound NCc1ccc(S(N)(=O)=O)cc1 [4-Homosulfanilamide] turned out to be 104

Record O=C1N[C@@H]2[C@@H](O)[C@@H](O)[C@H](O)[C@@H](CO)N2C1=O . Reported cell viability: 96.8

Entry OC[C@H]1OC(O)C[C@@H](O)[C@@H]1O (some centres undefined) , cell viability reported as 104

====

We begin with a simple list: items and their reported cell viability.
test system: myeloid leukemia patient primary cells Pat.1; test: cell viability (% survival relative to DMSO control); higher = less cytotoxic; details: 1000 nM; 72 h
Your answer is read as %, so omit the unit and give the number.

Take a look at these entries with their results.
sample-smiles	readout-type	endpoint-result
NS(=O)(=O)c1ccc(S(=O)(=O)Nc2cccc3c(Cl)c[nH]c23)cc1	cell viability	65.2
C=C1NC(=O)c2cc(CN(C)c3ccc(C(=O)N[C@@H](CCC(=O)O)C(=O)O)s3)ccc2N1	cell viability	93.7
O=C(c1c2ccccc2cc2ccccc12)N1CCC(N2CCC[C@@H](C(=O)N3CCOCC3)C2)CC1	cell viability	58.3

Continue with the next molecule.
Query Oc1ncc(F)c(O)n1 yields cell viability of 97

====

tested on: LAMA-84; test: cell viability (% survival relative to DMSO control, bortezomib = 0%); higher = less cytotoxic; conditions: 1 nM; 72 h
readout-type: cell viability (%)
Expressed in %, but write only the number.

molecule	subject-of-test	readout-type	endpoint-result
C[C@H]1O[C@H](O[C@H]2[C@H](O)[C@@H](O)[C@@H](O[C@H]3[C@H](O)[C@@H](O)C(O)O[C@@H]3CO)O[C@@H]2CO)[C@H](O)[C@@H](O)[C@@H]1N[C@H]1C=C(CO)[C@@H](O)[C@H](O)[C@H]1O (mixture of isomers) [Acarbose]	LAMA-84	cell viability	93.4

# cell viability of O=c1[nH]c(=O)n([C@H]2C[C@H](O)[C@@H](CO)O2)cc1I [Idoxuridine] = 102

Lookup result for Cn1cc(C[C@@H](N)C(=O)O)c2ccccc21 [Indoximod] ; measured cell viability: 94.5

response.value for OCCN1C[C@H](O)[C@@H](O)[C@H](O)[C@H]1CO [Miglitol] (field: cell viability) = 97

The molecule listed as C=C1NC(=O)c2cc(CN(C)c3ccc(C(=O)N[C@@H](CCC(=O)O)C(=O)O)s3)ccc2N1 [Raltitrexed] shows cell viability equal to 97.1

Notebook: CN1CC(=O)N2[C@H](c3ccc4c(c3)OCO4)c3[nH]c4ccccc4c3C[C@@H]2C1=O [Tadalafil] , cell viability read as 101

Measured cell viability, CCCCCCCCCCCCC/C=C/[C@@H](O)[C@H](CO)N(C)C [N,N-Dimethylsphingosine] : 101

For C=C1C(=O)O[C@H](CCCCCCCC)[C@H]1C(=O)O [C75] the molecule record lists cell viability as 92.2

====

cell viability values for the compounds below.
system: myeloid leukemia patient primary cells Pat.12; experiment: cell viability (% survival relative to DMSO control); higher = less cytotoxic; details: 100 nM; 72 h
Counter-ions that a name gives are not always drawn.
# value in %; strip the unit string

Please review the following examples before continuing.
compound	readout-type	units-symbol	endpoint-result
Nc1nc(O)c2c(CCc3ccc(C(=O)N[C@@H](CCC(=O)O)C(=O)O)cc3)c[nH]c2n1	cell viability	%	95.4
O=C(CCl)N(CCCNC(=O)C(F)(F)F)c1ccc([N+](=O)[O-])cc1	cell viability	%	80.4
Oc1ncc(F)c(O)n1	cell viability	%	87.6
CC(C)(Cc1ccccc1)NCC(O)c1ccc(O)c(NS(C)(=O)=O)c1 (centres undefined) [Zinterol hydrochloride]	cell viability	%	93.9
O=C(c1c2ccccc2cc2ccccc12)N1CCC(N2CCC[C@@H](C(=O)N3CCOCC3)C2)CC1	cell viability	%	99.7

Lookup result for CCC(CC#N)OC(=O)N[C@@H](C)c1cccc(NC(=O)Nc2ccc(-c3cnco3)c(OC)c2)c1 (stereo in doubt) ; measured cell viability: 87.7

====

// cell viability lookup, one value per entry
system: HL-60; assay: cell viability (% survival relative to DMSO control, bortezomib = 0%); higher = less cytotoxic; conditions: 1000 nM; 72 h
Give the number; % is assumed, so skip it.

# example entries with known answers
molecule	subject-of-test	cell viability (%)
NS(=O)(=O)c1ccc(S(=O)(=O)Nc2cccc3c(Cl)c[nH]c23)cc1	HL-60	97.2
OCC(CO)N[C@H]1C[C@](O)(CO)[C@@H](O)[C@H](O)[C@H]1O	HL-60	88.2
CCCCCCCNC=O [N-Heptyl-Formamide]	HL-60	143
Cc1[nH]n(-c2ccccc2)c(=O)c1C1(C(F)(F)F)C(=O)N(c2ccccc2)C2=C1C(=O)CC(C)(C)C2 (stereo unspecified)	HL-60	77.6
CN(C)C(=N)NC(=N)N	HL-60	102
OC[C@H]1OC(O)C[C@@H](O)[C@@H]1O (stereo partly specified)	HL-60	102
COc1cc(/C=C/c2ccc(OC)cc2OC)cc(OC)c1	HL-60	105
O=NN(CCCl)C(=O)NCCCl	HL-60	97.8
CN(C)CCNC(=O)c1cccn2c(=O)c3cc4ccccc4cc3nc12	HL-60	107
Fc1ccc(CNc2ncnc3ccc(F)cc23)cc1	HL-60	117

Recorded cell viability (molecule Cc1nnc(-c2ccc(N3CCC(Oc4ccccc4C(F)(F)F)CC3)nn2)s1 ): 127

For this molecule ( O=C(CCl)N(CCCNC(=O)C(F)(F)F)c1ccc([N+](=O)[O-])cc1 ), measured cell viability is 83.4

Memo: CN(C)C(=O)n1nnnc1Cc1ccc(-c2ccccc2)cc1 , reported cell viability: 108

Taken from the supplement of paper PMC8671470.
